Cited source: PubChem BioAssay (Tox21)

Molecular target: Androgen receptor (Homo sapiens) (UniProt P10275)
Sequence (P10275 whole entry, looked up): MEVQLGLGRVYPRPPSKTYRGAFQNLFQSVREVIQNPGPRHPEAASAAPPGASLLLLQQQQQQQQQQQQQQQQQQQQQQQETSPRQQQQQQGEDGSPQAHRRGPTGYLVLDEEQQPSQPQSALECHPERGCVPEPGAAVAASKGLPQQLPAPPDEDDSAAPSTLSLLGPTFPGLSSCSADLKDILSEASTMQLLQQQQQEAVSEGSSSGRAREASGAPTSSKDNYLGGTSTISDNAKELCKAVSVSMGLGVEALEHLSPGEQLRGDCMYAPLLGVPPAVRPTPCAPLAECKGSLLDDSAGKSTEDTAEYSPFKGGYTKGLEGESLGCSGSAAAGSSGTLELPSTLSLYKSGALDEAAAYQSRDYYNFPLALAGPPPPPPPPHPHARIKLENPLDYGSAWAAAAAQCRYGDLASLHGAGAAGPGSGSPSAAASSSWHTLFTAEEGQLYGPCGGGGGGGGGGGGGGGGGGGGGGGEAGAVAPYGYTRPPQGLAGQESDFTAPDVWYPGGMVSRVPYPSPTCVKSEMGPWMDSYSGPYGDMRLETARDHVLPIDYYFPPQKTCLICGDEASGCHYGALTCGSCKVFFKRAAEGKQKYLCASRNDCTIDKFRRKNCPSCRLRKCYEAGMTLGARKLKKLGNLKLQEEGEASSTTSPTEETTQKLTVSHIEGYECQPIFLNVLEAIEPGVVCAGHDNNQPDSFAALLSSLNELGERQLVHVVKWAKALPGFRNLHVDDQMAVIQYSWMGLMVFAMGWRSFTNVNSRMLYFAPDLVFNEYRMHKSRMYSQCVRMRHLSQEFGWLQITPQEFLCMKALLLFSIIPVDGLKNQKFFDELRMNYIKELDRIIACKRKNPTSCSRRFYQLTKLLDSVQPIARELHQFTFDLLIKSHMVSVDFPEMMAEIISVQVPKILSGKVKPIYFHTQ
Assay: qHTS assay to identify small molecule antagonists of the androgen receptor (AR) signaling pathway using the MDA cell line (AID 743042; note: nearly all actives have a fitted effect of over 55% in size)
Settings: MDA-kb2 AR-luc, MMTV luciferase, R1881 antagonist, 16 h; series mostly up to 70.3 µM
Results filed as inconclusive are left out. Active and inactive are the calls of the source. Calls come from the whole dose curve; as a rule, active = well fitted inhibition curve with a large enough effect in the repeat runs; inconclusive = weak or mixed curves, or effect the other way; inactive = no such curve, though single readings can be large or run the other way.
Use one of these outcomes when replying: active, inactive

Look over these answered cases.
CC1=C(/C=C/C(C)=C/C=C/C(C)=C/C=C/C=C(C)/C=C/C=C(C)/C=C/C2=C(C)CCCC2(C)C)C(C)(C)CCC1	inactive
CCN1CCCC1CNC(=O)c1cc(S(=O)(=O)CC)ccc1OC (centres undefined)	inactive
COc1ccc(/C=C/C(=O)Nc2ccccc2C(=O)O)cc1OC	inactive

Lookup: Please let me know the test result on file for CCN(CC)CCn1c(=O)c(Cc2ccc(OC)cc2)nc2ccccc21 .
Found: inactive

Lookup: Please let me know the test result on file for O=C(O)COc1ccc(C(=O)c2cccs2)c(Cl)c1Cl .
Found: inactive

Lookup: Please let me know the test result on file for COc1ccc([C@@H]2CC(=O)c3c(O)cc(O[C@@H]4O[C@H](CO[C@@H]5O[C@@H](C)[C@H](O)[C@@H](O)[C@H]5O)[C@@H](O)[C@H](O)[C@H]4O)cc3O2)cc1O .
Found: inactive

Lookup: Please let me know the test result on file for C=C1C(CCl)(CCl)C2(Cl)C(Cl)C(Cl)C1(Cl)C2(Cl)Cl (centres undefined) .
Found: active

Lookup: Please let me know the test result on file for O=P(O)(O)CP(=O)(O)O .
Found: inactive

Lookup: Please let me know the test result on file for CCOC(=O)[C@H](CCc1ccccc1)N[C@@H](C)C(=O)N1[C@H](C(=O)O)C[C@H]2CCCC[C@@H]21 .
Found: inactive

* * *

Biological target: Nuclear receptor subfamily 1 group I member 2 (Rattus norvegicus)
Test: Rat pregnane X receptor (rPXR) activation by small molecules, qHTS assay (AID 1346983); note: % is set by controls: 0 for no effect and ±100 for the full control effect; nearly all actives have a fitted effect of over 20% in size
Conditions: rPXR luciferase reporter cells, One-Glo luminescence, 24 h; active compounds read high
Results filed as inconclusive are left out. Active and inactive are the calls of the source. Calls come from the whole dose curve; as a rule, active = well fitted activation curve with a large enough effect in the repeat runs; inconclusive = weak or mixed curves; inactive = no such curve, though single readings can be large or run the other way.
# max activation values compiled below

C[C@H](NCCc1ccc(O)cc1)[C@H](O)c1ccc(O)cc1	-4.49% (inactive)
O=P(O)(O)C(O)(Cn1ccnc1)P(=O)(O)O	-1.82% (inactive)
NC(=S)NS(=O)(=O)c1ccc(N)cc1	-1.97% (inactive)
CNC(=O)OCc1cccc(COC(=O)NC)n1	8.37% (inactive)

Value of max activation reported for the compound CC(C)CCC[C@@H](C)[C@H]1CC[C@H]2[C@@H]3CC[C@@H]4C[C@H](O)CC[C@]4(C)[C@H]3CC[C@]12C is -7.28% (inactive)

Value of max activation reported for the compound CC1CCCCN1CCCOC(=O)c1ccccc1 (stereo unspecified) is -7.12% (inactive)

Value of max activation reported for the compound CN(C)CCc1c[nH]c2ccc(Cn3cncn3)cc12 is -1.87% (inactive)

Value of max activation reported for the compound N=C(N)c1ccc(/C=C/c2ccc(C(=N)N)cc2O)cc1 is -1.55% (inactive)

Value of max activation reported for the compound CC(C)(Oc1ccc(C2CCCc3ccccc32)cc1)C(=O)O (stereo unspecified) is -3.77% (inactive)

Value of max activation reported for the compound C[S+](C)CCC(N)C(=O)O (stereo unspecified) is -3.19% (inactive)

Value of max activation reported for the compound O=C1c2ccccc2CN2C(=O)c3ccccc3CN12 is -1.83% (inactive)

Value of max activation reported for the compound NC(N)=NCC1COC2(CCCCC2)O1 (stereo unspecified) is -2.55% (inactive)

Value of max activation reported for the compound C[N+]1(CCCCC[N+]2(C)CCCC2)CCCC1 is -2.61% (inactive)

Value of max activation reported for the compound CC(C)C[C@H](NC(=O)[C@@H](COC(C)(C)C)NC(=O)[C@H](Cc1ccc(O)cc1)NC(=O)[C@H](CO)NC(=O)[C@H](Cc1c[nH]c2ccccc12)NC(=O)[C@H](Cc1cnc[nH]1)NC(=O)[C@@H]1CCC(=O)N1)C(=O)N[C@@H](CCCN=C(N)N)C(=O)N1CCC[C@H]1C(=O)NNC(N)=O is -1.54% (inactive)
